Ref: patent US20180346592A1

Target: T1, GPC3 on the surface of hepatic cancer cell lines (SK-Hep1-GPC3 transfectant, HepG2, Huh7, Hep3B, SNU398) (human, UniProt P51654 25-554)
T1 construct: Species is not restated for the cells (hepatic cancer cell lines, or SK-Hep1 transfected with pCMV/GPC3); also called glypican 3
Experiment: FACS, HepG2 cells, 1 ug antibody; lower right panel
Binary call on Mean, FL2-H with cut-off 6: strictly below means MET, and equality or higher means NOT MET.

# count of solved cases: 4
- binder: "clone GX206 (scFv, V domains shown, scFv library clone tested as culture supernatant) VH: QLQLQESGPGLVKPSETLSLTCTVSGGSISSSSYYWGWIRQPPGKGLEWIGSIYYSGSTYYNPSLKSRVTISVDTSKNQFSLKLSSVTAADTAVYYCARLGDYGGNGYYFDYWGQGTLVTVSS VL: QSVLTQPPSVSAASGQKVTVSCSGSSSNIGKNGVSWHQQLPGTAPKLLIYENNRRPSEIPDRFSGSKSGTSATLAITGLQTGDEADYYCGTWDSSLNAGVFGTGTKVTVLG"
  group: "MET"
- binder: "GX270 clone antibody (purified anti-GPC3 antibody) (antibody, V domains shown, Purified antibody; also called GX270 antibody; GX270 candidate antibody) VH: QVQLVQSGAEVKKPGASVKVSCKTSGYTFTSSYMHWVRQAPGQGLEWMGIINPNSRGTNYAQKFQGRVTMTSDTSISTAYMELSSLISDDTAVYYCASSSGDYPDYWGQGTLVTVSS VL: SYELTQPPSVSVSPGQTARIACSGDALPKHYAYWYQQKSGQAPVLVVYEDKKRPAGIPERFSGSSSGTVATLTISGAQVEDEAHYYCYSTDTSGNHRVFGGGTKLTVLG"
  group: "NOT MET"
- binder: "clone GX248 (scFv, V domains shown, scFv library clone tested as culture supernatant) VH: QMQLVQSGAEVKKPGASVKVSCKASGGTFSSYAISWVRQAPGQGLEWMGGIIPIFGTANYAQKFQGRVTITADESTSTAYMELSSLRSEDTAVYYCARVRGTGPRGGTFDYWGQGTLVTVSS VL: QSVLTQPPSVSAAPGQKVTISCSGSSSNIGNNYVSWYQQLPGTAPKLLIYDNNKRPSGIPDRFSGSKSGTSATLGITGLQTGDEADYYCGTWDSSLSAWVFGGGTKLTVLG"
  group: "MET"
- binder: "clone GX225 (scFv, V domains shown, scFv library clone tested as culture supernatant) VH: QVQLVQSGAEVKKPGASVKVSCKASGYTFTSYYMHWVRQAPGQGLEWMGIINPSGGSTSYAQKFQGRVTMTRDTSTSTVYMELSSLRSEDTAVYYCARESGPSGGMDVWGQGTTVTVSS VL: SYELTQPPSVSVSPGQTARITCSGDALPKQYAYWYQQKPGQAPVLVIYKDSERPSGIPERFSGSSSGTTVTLTISGVQAEDEADYYCSSYTSSSTRVVFGGGTKLTVLG"
  group: "NOT MET"

// query Lab log: compare recorded Mean, FL2-H with 6; is it strictly lower for clone GX207 (scFv, V domains shown, scFv library clone tested as culture supernatant) VH: EVQLVQSGAEVKKPGASVKVSCKASGYTFTSYGISWVRQAPGQGLEWMGWISAYNGNTNYAQKLQGRVTMTTDTSTSTAYMELRSLRSDDTAVYYCAREGIAAAGYYYGMDVWGQGTTVTVSS VL: QSALTQPPSVSGSPGQSVTISCTGTSSDVGGYNRVSWYQQPPGTAPKLMIYEVSNRPSGVPDRFSGSKSGNTASLTISGLQAEDEADYYCSSYTSSTTYVFGTGTKVTVLG ?
// result MET
